tested on: TNFα; assay: Cot Monocyte TNFα Cell Based Assay; conditions: Homo sapiens, Monocyte, read-out: EC50 TNF, LPS-stimulated human monocytes, TNFα
Record form. Attribute: EC50. Fill in for each entry.
Use nM as the unit, but write only the number.

// assay TNFα, entry CCN1Cc2ccc([C@H](Nc3cc(Cl)c4ncc(C#N)c(Nc5ccc(F)c(Cl)c5)c4c3)c3c[nH]nn3)cc2C1 , EC50 value = 4020

// assay TNFα, entry Cn1ncc2cccc([C@H](Nc3cc(Cl)c4ncc(C#N)c(NCC(C)(C)C)c4c3)c3cn(C4(C(F)(F)F)CC4)nn3)c21 , EC50 value = 256

// assay TNFα, entry CCN1CCC(n2cc([C@@H](Nc3cc(Cl)c4ncc(C#N)c(Nc5ccc(F)c(Cl)c5)c4c3)c3cscc3Cl)nn2)CC1 , EC50 value = 173

// assay TNFα, entry Cc1nc(F)ccc1[C@H](Nc1cc(F)c2ncc(C#N)c(NCC(C)(C)C)c2c1)c1cn(C2(C(N)=O)CC2)nn1 , EC50 value = 991

// assay TNFα, entry Cc1nc(F)ccc1[C@H](Nc1cc(Cl)c2ncc(C#N)c(NCC(C)(C)c3ccccc3)c2c1)c1cn(C2(C(F)(F)F)CC2)nn1 , EC50 value = 171

// assay TNFα, entry N#Cc1cnc2c(Cl)cc(N[C@@H](c3cccnc3)c3cn(C4CCN(C5COC5)CC4)nn3)cc2c1Nc1ccc(F)c(Cl)c1 , EC50 value = 302

// assay TNFα, entry Cn1ccc2c([C@H](Nc3cc(Cl)c4ncc(C#N)c(NCC(C)(C)C)c4c3)c3cn(C4(C(F)(F)F)CC4)nn3)ccnc21 , EC50 value = 374

// assay TNFα, entry Cc1nc(F)ccc1[C@H](Nc1cc(Cl)c2ncc(C#N)c(NCC3(C(F)F)CC3)c2c1)c1cn(C2(C(F)(F)F)CC2)nn1 , EC50 value = 720

// assay TNFα, entry Cc1nc(F)ccc1[C@H](Nc1cc(Cl)c2ncc(C#N)c(NCC(C)(C)C)c2c1)c1cn(CC2(C(F)F)CC2)nn1 , EC50 value = 57

// assay TNFα, entry Cc1cncc([C@H](Nc2cc(Cl)c3ncc(C#N)c(Nc4ccc(F)c(Cl)c4)c3c2)c2cn(C(C)C)nn2)c1 , EC50 value = 2310

// assay TNFα, entry CC(C)(C)CNc1c(C#N)cnc2c(Cl)cc(N[C@H](c3cn(C4(C(N)=O)CCC4)nn3)c3cccc4ncsc34)cc12 , EC50 value = 63

// assay TNFα, entry CC(C)(C)N1CCC(n2cc([C@@H](Nc3cc(Cl)c4ncc(C#N)c(Nc5ccc(Cl)c(Cl)c5F)c4c3)c3csc4c3CCN(C3COC3)C4)nn2)CC1 , EC50 value = 94

// assay TNFα, entry N#Cc1cnc2c(Cl)cc(NC(c3cccnc3)c3cn(C4CCNCC4)nn3)cc2c1Nc1ccc(F)c(Cl)c1 (stereo not shown) , EC50 value = 1040

====

target: Human Cot (Homo sapiens (Human)); experiment: High Throughput Cot Biochemical Assay; conditions: IC50 HTRF, Cot HTRF (TR-FRET) biochemical assay
Sequence (P41279 30-397): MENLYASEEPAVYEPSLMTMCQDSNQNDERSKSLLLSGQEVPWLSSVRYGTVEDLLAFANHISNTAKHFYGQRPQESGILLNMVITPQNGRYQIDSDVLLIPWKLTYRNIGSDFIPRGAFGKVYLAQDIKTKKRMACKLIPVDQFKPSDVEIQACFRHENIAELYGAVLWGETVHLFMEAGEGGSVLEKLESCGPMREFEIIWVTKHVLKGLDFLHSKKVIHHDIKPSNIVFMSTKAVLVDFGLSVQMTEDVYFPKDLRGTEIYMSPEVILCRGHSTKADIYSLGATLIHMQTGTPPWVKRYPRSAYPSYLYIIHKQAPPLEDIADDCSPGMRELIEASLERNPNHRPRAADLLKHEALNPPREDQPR
Could you please mark met for values of IC50 below 3 nM and not met for values at or above it?

Req: Lab note: confirm whether the reported IC50 for this compound is below 3 nM, equality not counting. compound: Cc1ccc([C@H](Nc2cc(Cl)c3ncc(C#N)c(NCC(C)(C)C)c3c2)c2cn(C3(C(F)F)CC3)nn2)c(C)n1
Resp: not met

Req: Lab note: confirm whether the reported IC50 for this compound is below 3 nM, equality not counting. compound: CCN1Cc2cccc([C@H](Nc3cc(Cl)c4ncc(C#N)c(Nc5ccc(F)c(Cl)c5)c4c3)c3c[nH]nn3)c2C1
Resp: not met

Req: Lab note: confirm whether the reported IC50 for this compound is below 3 nM, equality not counting. compound: CC(C)(C)CNc1c(C#N)cnc2c(Cl)cc(N[C@H](c3cn(C4(C(F)(F)F)CC4)nn3)c3cncc4ccccc34)cc12
Resp: not met

Req: Lab note: confirm whether the reported IC50 for this compound is below 3 nM, equality not counting. compound: C[C@@H](Nc1c(C#N)cnc2c(Cl)cc(N[C@@H](c3cccnc3)c3c[nH]nn3)cc12)c1ccccc1
Resp: not met

Req: Lab note: confirm whether the reported IC50 for this compound is below 3 nM, equality not counting. compound: CC[C@@H](Nc1c(C#N)cnc2c(Cl)cc(N[C@@H](c3cccnc3)c3cn(CCF)nn3)cc12)c1ccccc1
Resp: met

Req: Lab note: confirm whether the reported IC50 for this compound is below 3 nM, equality not counting. compound: CCN1CCC(n2cc(C(Nc3cc(Cl)c4ncc(C#N)c(Nc5ccc(F)c(Cl)c5)c4c3)c3cn(C)nn3)nn2)CC1 (centres unmarked)
Resp: not met

Req: Lab note: confirm whether the reported IC50 for this compound is below 3 nM, equality not counting. compound: N#Cc1cnc2c(Cl)cc(N[C@H](c3c[nH]nn3)c3csc4c3CCN(C3COC3)C4)cc2c1Nc1cccc(Cl)c1F
Resp: not met

Req: Lab note: confirm whether the reported IC50 for this compound is below 3 nM, equality not counting. compound: CC(C)(C)N1CCC(n2cc([C@@H](Nc3cc(Cl)c4ncc(C#N)c(Nc5ccc(Cl)c(Cl)c5)c4c3)c3cscn3)nn2)CC1
Resp: not met

Req: Lab note: confirm whether the reported IC50 for this compound is below 3 nM, equality not counting. compound: CC(C)(C)N1CCC(n2cc([C@@H](Nc3cc(Cl)c4ncc(C#N)c(Nc5ccc(F)c(Cl)c5)c4c3)c3ccc(F)nc3)nn2)CC1
Resp: not met

Req: Lab note: confirm whether the reported IC50 for this compound is below 3 nM, equality not counting. compound: CC(C)(C)CNc1c(C#N)cnc2c(C#N)cc(N[C@H](c3cn(C4(C#N)CC4)nn3)c3cccc4cnccc34)cc12
Resp: met

Req: Lab note: confirm whether the reported IC50 for this compound is below 3 nM, equality not counting. compound: Cc1nc(F)ccc1[C@H](Nc1cc(Cl)c2ncc(C#N)c(NCC(C)(C)C)c2c1)c1cn(C2(C(=O)N3CCOCC3)CC2)nn1
Resp: not met

Req: Lab note: confirm whether the reported IC50 for this compound is below 3 nM, equality not counting. compound: CC[C@@H](Nc1c(C#N)cnc2c(Cl)cc(N[C@@H](c3cccnc3)c3cn(CC[N+](C)(CC)CC)nn3)cc12)c1ccccc1
Resp: not met

Req: Lab note: confirm whether the reported IC50 for this compound is below 3 nM, equality not counting. compound: CC(C)(C)CNc1c(C#N)cnc2c(Cl)cc(N[C@@H](c3cccnc3)c3cn(C4(C(F)F)CC4)nn3)cc12
Resp: not met

Req: Lab note: confirm whether the reported IC50 for this compound is below 3 nM, equality not counting. compound: Cn1ccc2c([C@H](Nc3cc(Cl)c4ncc(C#N)c(NCC(C)(C)C(F)(F)F)c4c3)c3cn(C4(C5CC5)CC4)nn3)cccc2c1=O
Resp: met

Req: Lab note: confirm whether the reported IC50 for this compound is below 3 nM, equality not counting. compound: [2H][C@](Nc1cc(Cl)c2ncc(C#N)c(Nc3cnc(F)c(F)c3)c2c1)(c1cncc(C#N)c1)c1cn(C2CC2)nn1
Resp: not met

Req: Lab note: confirm whether the reported IC50 for this compound is below 3 nM, equality not counting. compound: Cc1ncccc1[C@H](Nc1cc(Cl)c2ncc(C#N)c(Nc3cnc(F)c(F)c3)c2c1)c1c[nH]nn1
Resp: not met

Req: Lab note: confirm whether the reported IC50 for this compound is below 3 nM, equality not counting. compound: Cc1ncccc1[C@H](Nc1cc(Cl)c2ncc(C#N)c(N[C@H](CO)c3ccccc3)c2c1)c1c[nH]nn1
Resp: not met

Req: Lab note: confirm whether the reported IC50 for this compound is below 3 nM, equality not counting. compound: [2H]C([2H])([2H])C([2H])([2H])[C@@H](Nc1c(C#N)cnc2c(Cl)cc(N[C@@]([2H])(c3ccc(F)nc3)c3cn(C4CC4)nn3)cc12)c1ccccc1
Resp: met

Req: Lab note: confirm whether the reported IC50 for this compound is below 3 nM, equality not counting. compound: CCN1CCC(n2cc([C@@H](Nc3cc(Cl)c4ncc(C#N)c(Nc5ccc(F)c(Cl)c5)c4c3)c3cncs3)nn2)CC1
Resp: met

Req: Lab note: confirm whether the reported IC50 for this compound is below 3 nM, equality not counting. compound: Cn1ncc2c([C@H](Nc3cc(Cl)c4ncc(C#N)c(NCC(C)(C)C)c4c3)c3cn(C4(C(F)F)CC4)nn3)cccc21
Resp: not met

Req: Lab note: confirm whether the reported IC50 for this compound is below 3 nM, equality not counting. compound: Cc1ncsc1[C@H](Nc1cc(Cl)c2ncc(C#N)c(NCC(C)(C)C)c2c1)c1cn(C2(C(F)F)CC2)nn1
Resp: not met

====

molecular target: Human Cot (Homo sapiens (Human)); assay: High Throughput Cot Biochemical Assay; conditions: IC50 HTRF, Cot HTRF (TR-FRET) biochemical assay
parameter_measured: pIC50
Please keep in mind that pIC50 is minus log10 of the molar concentration; only the number is needed.

In plain terms, CC(C)(C)CNc1c(C#N)cnc2c(Cl)cc(N[C@H](c3cn(C4(C(F)(F)F)CC4)nn3)c3cccc4c(=O)n(CC(F)F)ccc34)cc12 has a documented pIC50 of 8.40

In plain terms, Cc1nc(Cl)ccc1[C@H](Nc1cc(Cl)c2ncc(C#N)c(Nc3ccc(F)c(Cl)c3)c2c1)c1cn(CCO)nn1 has a documented pIC50 of 8.40

In plain terms, Cc1nc(F)ccc1[C@H](Nc1cc(C#N)c2ncc(C#N)c(NCC(C)(C)C)c2c1)c1cn(C(C)(C)C(F)F)nn1 has a documented pIC50 of 8.52
